biological target: human GPR119 (Homo sapiens); experiment: Functional cellular assay measuring GPR119-mediated cAMP release (HTRF) in HEK-293 cells stably expressing recombinant human GPR119; settings: cAMP response, cell line expressing human GPR119, 30 minutes at room temperature
EXPERIMENTAL_ENDPOINT: EC50 (nM)

O=C1c2cc(N3CC[C@@H](Oc4ccc(OCCC5CC5)nc4)C3=O)cc(F)c2CN1CCCO = 609

I = CSCN1Cc2c(F)cc(N3CC[C@@H](Oc4ccc(OCC5CC5)nc4)C3=O)cc2C1=O
II = CCOc1ccc(O[C@@H]2CCN(c3cc(F)c4c(c3)C(=O)N(CC(=O)NCCO)C4)C2=O)cn1
III = C[S+]([O-])CN1Cc2ncc(N3CC[C@@H](Oc4ccc(OCC(F)(F)F)nc4)C3=O)cc2C1=O (stereo partly shown)
Query block: Ordering: ascending EC50. In plain terms: list the labels in the order you were asked to.
Result block: I, III, II

###

molecular target: human GPR119 (Homo sapiens, UniProt Q8TDV5); construct: expressed in transfected cells; assay: Functional cellular assay measuring GPR119-mediated cAMP release (HTRF) in HEK-293 cells stably expressing recombinant human GPR119; type: cell-based; conditions: cAMP response, cell line expressing human GPR119, 30 minutes at room temperature
Sequence (Q8TDV5 whole entry): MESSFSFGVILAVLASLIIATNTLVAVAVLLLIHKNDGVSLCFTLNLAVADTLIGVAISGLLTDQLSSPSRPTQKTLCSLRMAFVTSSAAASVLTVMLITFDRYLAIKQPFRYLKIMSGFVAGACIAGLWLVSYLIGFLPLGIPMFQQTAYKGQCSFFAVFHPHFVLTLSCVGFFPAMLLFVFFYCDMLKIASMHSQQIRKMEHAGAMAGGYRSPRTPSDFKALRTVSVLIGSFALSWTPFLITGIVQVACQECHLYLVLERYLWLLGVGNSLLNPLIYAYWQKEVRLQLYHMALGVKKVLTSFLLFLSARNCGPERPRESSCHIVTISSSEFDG
EXPERIMENTAL_ENDPOINT: EC50 (nM)

Example entries and their recorded answers appear below.
CN(CCO)C(=O)CN1Cc2ccc(N3CC[C@@H](Oc4ccc(OCC(F)(F)F)nc4)C3=O)cc2C1=O = 179
CN(C)C(=O)CN1Cc2ccc(N3CC[C@@H](Oc4ccc(S(F)(F)(F)(F)F)cc4)C3=O)cc2C1=O = 160

P = COCCNC(=O)CN1Cc2ccc(N3CC[C@@H](Oc4ccc(OCC5CC5)nc4)C3=O)cc2C1=O
Q = CN(C)C(=O)CN1Cc2ccc(N3CC[C@@H](Oc4ccc(CCCC5CC5)nc4)C3=O)cc2C1=O
R = CCOC(=O)CN1Cc2ccc(N3CC[C@@H](Oc4ccc(OCC5CC5)nc4)C3=O)cc2C1=O
S = CCOc1ccc(O[C@@H]2CCN(c3cc(F)c4c(c3)C(=O)N(CC(=O)NCCOC)C4)C2=O)cn1
Query block: Ordering: ascending EC50. In plain terms: list the labels in the order you were asked to.
Result block: R, Q, P, S

1 = NC(=O)CN1Cc2ccc(N3CC[C@@H](Oc4ccc(OCC5CC5)nc4)C3=O)cc2C1=O
2 = C=CCOc1ccc(O[C@@H]2CCN(c3cc(F)c4c(c3)C(=O)N(CC(=O)N(C)C)C4)C2=O)cn1
Query block: Of 1 and 2 , whose reported EC50 is numerically smaller? Output the label that corresponds to your choice.
Result block: 2
(2: 64 nM, 1: 163 nM)

A = CN(C)C(=O)CN1Cc2ccc(N3CC[C@@H](Oc4ccc(C(=O)c5ccc(F)cc5)cc4)C3=O)cc2C1=O
B = CCOc1ccc(O[C@@H]2CCN(c3cc(F)c4c(c3)C(=O)N(CC(=O)N(C)C)C4)C2=O)cn1
Query block: Could you please tell me which of these two has the higher EC50: A or B ? Output the label that corresponds to your choice.
Result block: B

P = CN(CCO)C(=O)CN1Cc2ccc(N3CC[C@@H](Oc4ccc(Oc5ccc(F)cc5)nc4)C3=O)cc2C1=O
Q = NC(=O)CN1Cc2ccc(N3CC[C@@H](Oc4ccc(C(=O)C5CC5)nc4)C3=O)cc2C1=O
R = CN(C)C(=O)CN1Cc2ccc(N3CC[C@@H](Oc4ccc(N5CCCC5)cc4)C3=O)cc2C1=O
Query block: Ordering: ascending EC50. In plain terms: list the labels in the order you were asked to.
Result block: Q, P, R
(Q: 207 nM, P: 297 nM, R: 6370 nM)

a = CCOc1ccc(O[C@@H]2CCN(c3cc(F)c4c(c3)C(=O)N(CC(=O)NC)C4)C2=O)cn1
b = CCOc1ccc(O[C@@H]2CCN(c3cc(F)c4c(c3)C(=O)N(CC(=O)O)C4)C2=O)cn1
Query block: Of a and b , whose reported EC50 is numerically smaller? Output the label that corresponds to your choice.
Result block: a

These entries and their values trace back to patent US9908868B2.
